These measurements were taken from ChEMBL document CHEMBL1123602.

Tested on: Bacillus pumilus
ASSAY_COMMENT: Antimicrobial activity against the strain of Bacillus pumilus(1697)
Assay type: functional
MIC values for the compounds below.

The cases that follow already have their MIC on record.
# STRUCTURE_NOTATION, QUANTITY_KIND, ENDPOINT_RESULT
measured = [
    ("COC(=O)/C=C/C(=O)NC[C@@H](N)C(=O)N[C@H](CNC(=O)/C=C/C(=O)OC)C(=O)O", "MIC", "> 200 µg/mL"),
    ("COC(=O)/C=C/C(=O)NC[C@@H](N)C(=O)N[C@@H](C)C(=O)O", "MIC", "> 200 µg/mL"),
]

Next up:
Lookup: Tell me MIC reported for `COC(=O)/C=C/C(=O)NC[C@@H](N)C(=O)N[C@@H](CCSC)C(=O)O`
Found: > 200 µg/mL
